system: Escherichia coli IAI1; assay: fold change of Cadaverine concentration vs plate DMSO controls (fold change (ratio)); higher = more amine produced, active = hit call of the paper (significant change in both replicates, either direction); conditions: incubation time: 27 h, anaerobic, 37 °C
Where a name gives a salt, the structure may show the parent alone.
experimental-endpoint: fold change of Cadaverine concentration

compound="CC(C[N+](C)(C)C)OC(N)=O (stereo not given) [Bethanechol chloride] (20 µM)" experimental_endpoint="fold change of Cadaverine concentration" value_measured="1 (inactive)"
compound="CCOC1O[C@H]([C@@H](COCc2ccccc2)OCc2ccccc2)[C@H](OCc2ccccc2)[C@H]1O (stereo not given in full) [Tribenoside] (20 µM)" experimental_endpoint="fold change of Cadaverine concentration" value_measured="1.01 (inactive)"
compound="CCOc1ccc2c(c1)C(C)=CC(C)(C)N2 [Ethoxyquin] (20 µM)" experimental_endpoint="fold change of Cadaverine concentration" value_measured="0.994 (inactive)"
compound="N=c1ccn2c(n1)O[C@H]1[C@H](O)[C@@H](CO)O[C@H]12 [Ancitabine hydrochloride] (20 µM)" experimental_endpoint="fold change of Cadaverine concentration" value_measured="1 (inactive)"
compound="CCOC(=O)OC(C)OC1=C(C(=O)Nc2ccccn2)N(C)S(=O)(=O)c2ccccc21 (stereo not given) [Ampiroxicam] (20 µM)" experimental_endpoint="fold change of Cadaverine concentration" value_measured="0.983 (inactive)"
